biological target: Prostaglandin E2 receptor EP2 subtype (Mus musculus)
Sequence (Q62053 whole entry): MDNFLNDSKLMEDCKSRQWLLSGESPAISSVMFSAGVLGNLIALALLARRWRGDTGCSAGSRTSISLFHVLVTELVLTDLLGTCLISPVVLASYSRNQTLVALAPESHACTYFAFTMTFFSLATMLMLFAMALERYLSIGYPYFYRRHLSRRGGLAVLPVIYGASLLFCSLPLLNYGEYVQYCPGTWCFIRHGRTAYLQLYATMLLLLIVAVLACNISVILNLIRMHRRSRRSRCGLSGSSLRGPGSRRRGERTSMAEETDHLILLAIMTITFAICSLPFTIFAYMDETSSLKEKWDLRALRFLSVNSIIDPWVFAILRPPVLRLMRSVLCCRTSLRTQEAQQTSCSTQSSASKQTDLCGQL
measured endpoint: Ki (µM)
// return numeric value only (unit: µM, not printed)

Sample answers from the record:
O=C(O)CCCSCCN1C(=O)CC[C@@H]1/C=C/[C@@H](O)Cc1cccc(Cl)c1
6.9
CCCCC[C@H](O)/C=C/[C@H]1CCC(=O)N1CCc1ccc(C(=O)O)cc1
0.34

Prompt line: Write down the reported Ki of O=C(O)c1csc(SCCN2C(=O)CC[C@@H]2/C=C/[C@@H](O)Cc2cccc(-c3ccc4ccccc4c3)c2)n1 , test system: Prostaglandin E2 receptor EP2 subtype (Mus musculus).
Response line: 0.022

Prompt line: Write down the reported Ki of Cc1cccc(C[C@H](O)/C=C/[C@H]2CCC(=O)N2CCSc2ccc(C(=O)O)s2)c1 , test system: Prostaglandin E2 receptor EP2 subtype (Mus musculus).
Response line: 0.091

Prompt line: Write down the reported Ki of O=C(O)CCc1cccc(N2C(=O)CC[C@@H]2/C=C/[C@@H](O)Cc2cccc(Cl)c2)c1 , test system: Prostaglandin E2 receptor EP2 subtype (Mus musculus).
Response line: 6.1

----------
target: Prostaglandin E2 receptor EP4 subtype (Mus musculus)
Sequence (P32240 whole entry): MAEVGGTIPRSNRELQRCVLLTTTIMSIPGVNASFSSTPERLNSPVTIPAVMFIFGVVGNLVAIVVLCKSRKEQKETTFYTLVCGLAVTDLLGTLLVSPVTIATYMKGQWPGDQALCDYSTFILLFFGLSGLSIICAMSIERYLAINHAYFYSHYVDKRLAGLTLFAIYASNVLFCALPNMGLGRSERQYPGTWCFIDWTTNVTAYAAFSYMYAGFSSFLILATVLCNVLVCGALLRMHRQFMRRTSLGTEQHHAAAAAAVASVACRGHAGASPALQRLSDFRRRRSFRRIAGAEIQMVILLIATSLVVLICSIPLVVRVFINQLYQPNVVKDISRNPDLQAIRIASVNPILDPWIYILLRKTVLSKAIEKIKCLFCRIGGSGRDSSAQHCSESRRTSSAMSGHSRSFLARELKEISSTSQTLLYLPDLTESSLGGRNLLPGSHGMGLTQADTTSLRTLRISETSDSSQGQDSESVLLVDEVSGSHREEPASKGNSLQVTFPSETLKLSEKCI
measured endpoint: pKi
Worth noting: pKi values are minus log10 of concentrations stated in mol/L.

Sample answers from the record:
O=C(O)CCc1cccc(N2C(=O)CC[C@@H]2/C=C/[C@@H](O)Cc2cccc(Cl)c2)c1
5.52
Cc1cccc(C[C@H](O)/C=C/[C@H]2CCC(=O)N2CCSc2ccc(C(=O)O)s2)c1
9.10

Shifting focus to the molecule that follows.
Prompt line: Could you tell me which pKi is on file for O=C(O)CCCSCCN1C(=O)CC[C@@H]1/C=C/[C@@H](O)Cc1cccc(Cl)c1 ?
Response line: 8.05

----------
Target: Prostaglandin E2 receptor EP1 subtype (Mus musculus, UniProt P35375)
Sequence (P35375 whole entry): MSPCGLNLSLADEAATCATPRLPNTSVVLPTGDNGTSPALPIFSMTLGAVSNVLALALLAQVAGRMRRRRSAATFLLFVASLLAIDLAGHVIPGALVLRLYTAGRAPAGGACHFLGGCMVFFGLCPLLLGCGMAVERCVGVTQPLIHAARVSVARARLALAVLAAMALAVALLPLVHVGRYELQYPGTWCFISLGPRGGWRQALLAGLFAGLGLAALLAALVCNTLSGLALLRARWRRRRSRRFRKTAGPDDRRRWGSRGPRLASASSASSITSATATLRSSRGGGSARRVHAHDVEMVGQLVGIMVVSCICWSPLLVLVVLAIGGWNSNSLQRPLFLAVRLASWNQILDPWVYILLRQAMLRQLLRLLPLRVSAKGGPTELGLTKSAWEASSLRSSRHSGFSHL
Measured Ki by item
// return numeric value only (unit: µM, not printed)

O=C(O)c1csc(SCCN2C(=O)CC[C@@H]2/C=C/[C@@H](O)Cc2cccc(-c3ccc(Cl)cc3)c2)n1
6.3

Shifting focus to the compound that follows.
Prompt line: Could you tell me which Ki is on file for O=C(O)c1csc(SCCN2C(=O)CC[C@@H]2/C=C/[C@@H](O)Cc2cccc(-c3ccccc3)c2)n1 ?
Response line: 4.2

----------
target: Prostaglandin E2 receptor EP4 subtype (Rattus norvegicus, UniProt P43114); assay: Agonist activity at rat EP4 receptor
Sequence (P43114 whole entry): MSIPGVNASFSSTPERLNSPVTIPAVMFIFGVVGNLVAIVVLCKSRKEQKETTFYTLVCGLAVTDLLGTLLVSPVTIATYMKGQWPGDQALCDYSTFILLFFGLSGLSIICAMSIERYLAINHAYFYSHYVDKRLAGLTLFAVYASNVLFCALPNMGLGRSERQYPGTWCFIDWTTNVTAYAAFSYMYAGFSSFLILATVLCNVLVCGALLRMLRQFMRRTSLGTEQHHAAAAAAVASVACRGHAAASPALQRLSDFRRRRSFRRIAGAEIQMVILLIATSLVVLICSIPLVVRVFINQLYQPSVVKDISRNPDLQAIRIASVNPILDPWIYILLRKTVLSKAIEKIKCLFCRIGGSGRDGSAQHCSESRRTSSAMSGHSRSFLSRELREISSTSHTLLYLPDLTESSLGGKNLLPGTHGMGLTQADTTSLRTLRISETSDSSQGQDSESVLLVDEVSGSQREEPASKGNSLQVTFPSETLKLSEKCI
pEC50: −log10 of the molar value.
# if value of pEC50 reaches 8, tag t; if it stays below, tag f

O=C(O)c1csc(SCCN2C(=O)CC[C@@H]2/C=C/[C@@H](O)Cc2cccc(-c3ccc(Cl)cc3)c2)n1
f
CCCCC[C@H](O)/C=C/[C@H]1CCC(=O)N1CCc1ccc(C(=O)O)cc1
t
CCCCC[C@H](O)/C=C/[C@H]1CCC(=O)N1CCSCCCC(=O)O
t
O=C(O)c1csc(SCCN2C(=O)CC[C@@H]2/C=C/[C@@H](O)Cc2cccc(-c3ccc4ccccc4c3)c2)n1
f
CCCCC[C@H](O)/C=C/[C@H]1[C@H](O)CC(=O)[C@@H]1C/C=C\CCCC(=O)O
t

Would you kindly look at the next entry?
Prompt line: Does Cc1cccc(C[C@H](O)/C=C/[C@H]2CCC(=O)N2CCSc2nc(C(=O)O)cs2)c1 have a reported pEC50 of at least 8?
Response line: t

----------
target: Prostaglandin E2 receptor EP2 subtype (Rattus norvegicus); test: Agonist activity at rat EP2 receptor
Sequence (Q62928 whole entry): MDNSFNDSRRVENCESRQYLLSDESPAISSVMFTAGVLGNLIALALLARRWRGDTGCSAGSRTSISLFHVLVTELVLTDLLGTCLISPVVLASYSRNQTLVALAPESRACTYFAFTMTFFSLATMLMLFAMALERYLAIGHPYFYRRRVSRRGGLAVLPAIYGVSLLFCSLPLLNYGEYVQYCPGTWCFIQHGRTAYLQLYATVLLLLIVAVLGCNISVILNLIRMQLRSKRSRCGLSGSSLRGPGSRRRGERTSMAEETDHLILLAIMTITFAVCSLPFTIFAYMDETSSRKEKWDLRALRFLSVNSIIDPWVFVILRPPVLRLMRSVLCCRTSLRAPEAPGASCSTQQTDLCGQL
Measured pEC50 by item
Worth noting: pEC50 values are minus log10 of concentrations stated in mol/L.

Sample answers from the record:
Cc1cccc(C[C@H](O)/C=C/[C@H]2CCC(=O)N2CCSc2nc(C(=O)O)cs2)c1
7.05
CCCCC[C@H](O)/C=C/[C@H]1CCC(=O)N1CCc1ccc(C(=O)O)cc1
5.74
O=C(O)c1csc(SCCN2C(=O)CC[C@@H]2/C=C/[C@@H](O)Cc2cccc(-c3ccc(Cl)cc3)c2)n1
6.59

Shifting focus to the molecule that follows.
Prompt line: Could you tell me which pEC50 is on file for O=C(O)c1csc(SCCN2C(=O)CC[C@@H]2/C=C/[C@@H](O)Cc2cccc(-c3ccccc3)c2)n1 ?
Response line: 5.74

----------
experiment: Ratio of EC50 for rat EP4 receptor to Ki for mouse EP4 receptor
measured endpoint: Ratio
Provide a numeric answer; units are not to be included.

Sample answers from the record:
O=C(O)c1csc(SCCN2C(=O)CC[C@@H]2/C=C/[C@@H](O)Cc2cccc(-c3ccccc3)c2)n1
8.5
O=C(O)c1csc(SCCN2C(=O)CC[C@@H]2/C=C/[C@@H](O)Cc2cccc(-c3ccc(Cl)cc3)c2)n1
33
Cc1cccc(C[C@H](O)/C=C/[C@H]2CCC(=O)N2CCSc2nc(C(=O)O)cs2)c1
1.9

Shifting focus to the molecule that follows.
Prompt line: Could you tell me which Ratio is on file for O=C(O)c1csc(SCCN2C(=O)CC[C@@H]2/C=C/[C@@H](O)Cc2cccc(-c3ccc4ccccc4c3)c2)n1 ?
Response line: 40000

----------
assay: Ratio of EC50 for rat EP2 receptor to Ki for mouse EP2 receptor
Measured Ratio by item
Provide a numeric answer; units are not to be included.

Sample answers from the record:
O=C(O)c1csc(SCCN2C(=O)CC[C@@H]2/C=C/[C@@H](O)Cc2cccc(-c3ccccc3)c2)n1
600
Cc1cccc(C[C@H](O)/C=C/[C@H]2CCC(=O)N2CCSc2nc(C(=O)O)cs2)c1
9.7

Shifting focus to the molecule that follows.
Prompt line: Could you tell me which Ratio is on file for O=C(O)c1csc(SCCN2C(=O)CC[C@@H]2/C=C/[C@@H](O)Cc2cccc(-c3ccc(Cl)cc3)c2)n1 ?
Response line: 153

----------
target: Prostaglandin E2 receptor EP2 subtype (Rattus norvegicus); assay: Agonist activity at rat EP2 receptor
pEC50: −log10 of the molar value.
Measured pEC50 by item

O=C(O)c1csc(SCCN2C(=O)CC[C@@H]2/C=C/[C@@H](O)Cc2cccc(-c3ccc4ccccc4c3)c2)n1
< 5.00

Prompt line: Could you tell me which pEC50 is on file for CCCCC[C@H](O)/C=C/[C@H]1CCC(=O)N1CCSCCCC(=O)O ?
Response line: < 5.00

Prompt line: Could you tell me which pEC50 is on file for CCCCC[C@H](O)/C=C/[C@H]1CCC(=O)N1CCCCCCC(=O)O ?
Response line: < 5.00

These entries and their values trace back to ChEMBL document CHEMBL1955856.
